Catalogue of Percent Effect values
- Test system: Leishmania donovani
- ASSAY OVERVIEW: Leishmania intramacrophage assay
- Format: functional, organism-based
- Parameters: scale not given: in the data most compounds retested in dose-response had high values
- CONDITIONS USED: 30.3 µM; […]
Among all 69,000 compounds or so, about 1,000 (1.4%) showed an effect of 50% or more. This is one part of a sample in which strong results are shown more often than they occur.
Hi! Could you send only the number? It should be in %, unit omitted.

Recorded Percent Effect, per entry:
- MOLECULE: "CCCN1CCC(c2nc3ccc(-c4cccc(OC)c4)cn3n2)CC1.O=C(O)C(F)(F)F"
  Percent Effect, %: 66.14
- MOLECULE: "Cc1ccc(CN2Cc3nnn(C)c3C(COCC3CC3)C2)s1.O=C(O)C(F)(F)F (stereo not given)"
  Percent Effect, %: 19.91
- MOLECULE: "CCCN(C(=O)c1csnn1)C1CCCN(Cc2ccccc2)C1 (stereo not given)"
  Percent Effect, %: 11.65
- MOLECULE: "O=C(c1cccnc1)N1CCCC(c2ncncc2-c2ccncc2)C1 (stereo not given)"
  Percent Effect, %: 1.341

Task item: Please report the recorded Percent Effect for `CC(=O)N1CCC(c2nc3ccc(NC4CCC4)cn3n2)CC1.O=C(O)C(F)(F)F` .
Reply: 40.49

The values you see were collected from ChEMBL document CHEMBL3988442.
